Origin of values: paper PMC5540273

system: NEK10; conditions: concentration: 1 μM, replicates: in singlicate; n = 1;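 note: KINOMEscan kinase panel screen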
I'd be grateful if you could share measured %Inh for these entries.
Write the number in % without appending the unit.

# input Tell me the measured %Inh of "Nc1ncnc2occ(-c3ccc4c(c3)CCN4C(=O)Cc3cc(F)ccc3F)c12" , please.
# output 1

# input Tell me the measured %Inh of COC(=O)c1cccc(NC(=O)NC2CCN(c3ccnc(Nc4ccc(F)cc4)n3)C2)c1 (stereo not drawn) , please.
# output 16

# input Tell me the measured %Inh of "Fc1ccc(-c2nn3cccc(F)c3c2-c2ccncc2)cc1" , please.
# output 1

# input Tell me the measured %Inh of "CNCc1ccc2nc(NC(=O)c3ccc(C(C)(C)C)cc3)cn2c1" , please.
# output 20

# input Tell me the measured %Inh of "COc1nccc(-c2c(-c3ccc(F)cc3)ncn2CCCN2CCOCC2)n1" , please.
# output 0

# input Tell me the measured %Inh of "O=C(Nc1n[nH]c2nc(-c3cccs3)c(Br)cc12)C1CC1" , please.
# output 0

# input Tell me the measured %Inh of "CS(=O)(=O)CCNCc1nc(-c2ccc3ncnc(Nc4ccc(OCc5ccccc5)c(Cl)c4)c3c2)cs1.Cl" , please.
# output 11

# input Tell me the measured %Inh of "O=C1NC(=O)C(c2ccc(Cl)cc2)=C1Nc1cccc(Cl)c1" , please.
# output 0

# input Tell me the measured %Inh of "CCn1c(-c2c(N)noc2C)nc2cnccc21" , please.
# output 8

# input Tell me the measured %Inh of COC(=O)C(Cc1ccccc1)NC(=O)NC1CCN(c2ccnc(Nc3ccc(F)cc3)n2)C1 (stereo not drawn) , please.
# output 14

# input Tell me the measured %Inh of "Cc1ccccc1Cn1ccn2c(=O)cc(N3CCOCC3)nc12" , please.
# output 2

# input Tell me the measured %Inh of "NS(=O)(=O)c1cccc(N/C=C2\C(=O)Nc3ccc(S(=O)(=O)Cc4c(Cl)cccc4Cl)cc32)c1" , please.
# output 0

# input Tell me the measured %Inh of "Cc1ccc(NC(=O)Nc2ccccc2)cc1-c1ccc(C(=O)Nc2ccncc2)cc1" , please.
# output 10

# input Tell me the measured %Inh of "O=C1NC(=O)C(c2ccc(Cl)cc2)=C1Nc1ccc(O)cc1" , please.
# output 0

# input Tell me the measured %Inh of "CNc1nc(-c2ccc3c(N)n[nH]c3c2)cc(N2C[C@@H](C(=O)Nc3ccccc3)CC[C@H]2C)n1" , please.
# output 13

# input Tell me the measured %Inh of "O=c1cc(N2CCOCC2)nc2n(Cc3cccc(Cl)c3Cl)c3ccccc3n12" , please.
# output 9

# input Tell me the measured %Inh of "CC[C@@H]1CO[C@H](C(=O)Nc2ccccc2)CN1c1cc(-c2ccc3c(N)n[nH]c3c2)nc(NC)n1" , please.
# output 0

# input Tell me the measured %Inh of "Cc1ccc(-c2nc(Nc3ccncc3)c3ccccc3n2)s1" , please.
# output 4

# input Tell me the measured %Inh of "Cl.Cl.Cl.N#Cc1ccc(CCNc2nccc(-c3cccc(CN4CCNCC4)c3)n2)cc1" , please.
# output 1

# input Tell me the measured %Inh of COC(=O)C(NC(=O)NC1CCN(c2ccnc(Nc3ccc(F)cc3)n2)C1)c1ccccc1 (stereo not drawn) , please.
# output 0

# input Tell me the measured %Inh of "CC(=O)c1c(C)c2cnc(Nc3ccn(C)n3)nc2n(C2CCCC2)c1=O" , please.
# output 15

# input Tell me the measured %Inh of "Nc1nccc(-c2c(-c3ccc(F)cc3)ncn2C2CCN(Cc3ccccc3)CC2)n1" , please.
# output 0

# input Tell me the measured %Inh of CC(=O)c1cccc(NC(=O)NC2CCN(c3ccnc(Nc4ccc(F)cc4)n3)C2)c1 (stereo not drawn) , please.
# output 0

# input Tell me the measured %Inh of "Cc1c(Cn2c3ccccc3n3c(=O)cc(N4CCOCC4)nc23)cccc1C(F)(F)F" , please.
# output 0

# input Tell me the measured %Inh of "Fc1ccc(-c2nc3n(c2-c2ccncc2)CCS3)cc1" , please.
# output 14

# input Tell me the measured %Inh of "COc1ccc(CSc2nnc(-c3ccc4nccn4c3)o2)cc1C(F)(F)F" , please.
# output 13

# input Tell me the measured %Inh of "O=C(Nc1n[nH]c2nc(-c3cccs3)c(Br)cc12)C1CCCC1" , please.
# output 12
